measured-target: human recombinant AKR1B1 (Homo sapiens, UniProt P15121)
Construct: made in house
measurement-protocol: AKR1B1 inhibition assay with L-idose as substrate, NADPH oxidation (IC50)
Type: biochemical
test-settings: 10 mU AKR1B1, 1.6 mM L-idose, 37 °C; IC50 ± SD
Known IC50 of a selection of molecules
observed-property: IC50

>>> observed("CC1=CCC[C@H]2[C@](C)(Cc3cc(O)ccc3O)[C@@H](C)CC[C@]12C")
"0.52 µM"
>>> observed("CC1=CCC[C@H]2[C@](C)(CC3=CC(=O)C=CC3=O)[C@@H](C)CC[C@]12C")
"0.078 µM"
>>> observed("CNC1=CC(=O)C=C(C[C@]2(C)[C@@H](C)CC[C@]3(C)C(C)=CCC[C@@H]23)C1=O")
"73 µM"
>>> observed("CNC1=CC(=O)C(C[C@]2(C)[C@@H](C)CC[C@]3(C)C(C)=CCC[C@@H]23)=CC1=O")
"62 µM"
